Target Entity: Mitogen-activated protein kinase 3 (Homo sapiens) (UniProt P27361)
Sequence (P27361 whole entry): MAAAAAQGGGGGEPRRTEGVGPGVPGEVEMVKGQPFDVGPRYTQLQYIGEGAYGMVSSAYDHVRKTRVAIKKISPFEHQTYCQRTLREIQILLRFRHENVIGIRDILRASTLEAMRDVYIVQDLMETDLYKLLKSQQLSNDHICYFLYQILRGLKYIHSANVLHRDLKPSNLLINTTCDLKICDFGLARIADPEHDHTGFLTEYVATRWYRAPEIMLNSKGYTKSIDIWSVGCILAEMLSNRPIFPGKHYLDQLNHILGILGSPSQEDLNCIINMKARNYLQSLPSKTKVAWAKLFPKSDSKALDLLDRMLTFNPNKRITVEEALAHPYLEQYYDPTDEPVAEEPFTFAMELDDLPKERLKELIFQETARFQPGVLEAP
Experiment Summary: Inhibition of ERK1 (unknown origin) at 1 uM by Z'-Lyte assay relative to control
Given measured inhibition, output T if it is greater than or equal to 70% and F if not.

NC(=O)c1c(NC(=O)c2ccccc2Cl)sc2c1CCN(C(=O)Nc1cc(C(F)(F)F)cc(C(F)(F)F)c1)C2    T
NC(=O)c1c(NC(=O)c2ccc(C(F)(F)F)cc2)sc2c1CCN(C(=S)Nc1cc(C(F)(F)F)cc(C(F)(F)F)c1)C2    T

Ask: Determine whether measured inhibition meets or exceeds 70% for NC(=O)c1c(NC(=O)c2cccc([N+](=O)[O-])c2)sc2c1CCN(C(=S)Nc1cc(C(F)(F)F)cc(C(F)(F)F)c1)C2
Result: T

Ask: Consider next the compound COc1ccc(NC(=S)N2CCc3c(sc(NC(=O)c4ccccc4Cl)c3C(N)=O)C2)cc1 in the same way.
Result: T

Ask: Consider next the compound NC(=O)c1c(NC(=O)c2ccccc2)sc2c1CCN(C(=S)Nc1ccccc1)C2 in the same way.
Result: F

Ask: Consider next the compound Cc1ccccc1NC(=S)N1CCc2c(sc(NC(=O)c3ccccc3C)c2C(N)=O)C1 in the same way.
Result: F

Ask: Consider next the compound N#Cc1ccccc1CN1CCc2c(sc(NC(=O)c3ccccc3Cl)c2C(N)=O)C1 in the same way.
Result: F

Ask: Consider next the compound NC(=O)c1c(NC(=O)c2ccccc2Cl)sc2c1CCN(C(=S)Nc1cccc3ccccc13)C2 in the same way.
Result: T

Ask: Consider next the compound NC(=O)c1c(NC(=O)c2ccccc2Cl)sc2c1CCN(Cc1ccc([N+](=O)[O-])cc1)C2 in the same way.
Result: F

Ask: Consider next the compound NC(=O)c1c(NC(=O)c2ccccc2Cl)sc2c1CCN(C(=S)Nc1ccccc1I)C2 in the same way.
Result: T

====

Experiment Summary: Half life in Sprague-Dawley rat at 10 mg/kg, po by LC-MS analysis
Assay type: ADME, organism-based
Test Parameters: in vivo
Measured Quantity: half-life (h)
Hi! Could you send only the number? It should be in h, unit omitted.

Ask: Form field: reported half-life of NC(=O)c1c(NC(=O)c2ccccc2Cl)sc2c1CCN(C(=S)Nc1ccccc1Cl)C2
Result: 1.24

====

Experiment Summary: Cmax in Sprague-Dawley rat at 1 mg/kg, iv by LC-MS analysis
Assay type: ADME, organism-based
Design: dose 1 mg/kg, route intravenous
Test Parameters: in vivo
Measured Quantity: Cmax (ng/mL)
Hi! Could you send only the number? It should be in ng/mL, unit omitted.

Ask: Form field: reported Cmax of NC(=O)c1c(NC(=O)c2ccccc2Cl)sc2c1CCN(C(=S)Nc1ccccc1Cl)C2
Result: 1890

====

Target Entity: Mitogen-activated protein kinase 1 (Homo sapiens)
Experiment Summary: Inhibition of ERK2 (unknown origin) at 1 uM by Z'-Lyte assay relative to control
// thresholds for inhibition classes: lower band = under 60%, central band = from 60% up to 80%, upper band = 80% and over

Take a look at these entries with their results.
NC(=O)c1c(NC(=O)c2ccccc2F)sc2c1CCN(Cc1ccc(Cl)cc1Cl)C2    lower band
NC(=O)c1c(NC(=O)c2ccccc2Cl)sc2c1CCN(C(=S)Nc1ccccc1C(F)(F)F)C2    upper band

Okay, now this compound:
Ask: Bin? CCCCCC(=O)Nc1sc2c(c1C(N)=O)CCN(C(=S)NCCCC)C2
Result: central band

====

Target Entity: Mitogen-activated protein kinase 1 (Homo sapiens) (UniProt P28482)
Sequence (P28482 whole entry): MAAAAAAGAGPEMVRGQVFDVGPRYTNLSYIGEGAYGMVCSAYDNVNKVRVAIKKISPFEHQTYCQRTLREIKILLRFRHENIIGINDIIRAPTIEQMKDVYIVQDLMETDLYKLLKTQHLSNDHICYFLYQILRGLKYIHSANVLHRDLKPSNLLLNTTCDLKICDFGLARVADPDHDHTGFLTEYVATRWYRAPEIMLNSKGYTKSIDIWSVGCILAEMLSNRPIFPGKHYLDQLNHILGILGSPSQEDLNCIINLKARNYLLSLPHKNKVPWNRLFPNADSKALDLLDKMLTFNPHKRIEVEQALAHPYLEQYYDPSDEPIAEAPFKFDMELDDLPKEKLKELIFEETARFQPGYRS
Experiment Summary: Inhibition of ERK2 (unknown origin) at 1 uM by Z'-Lyte assay relative to control
Given measured inhibition, output Criterion met if it is greater than or equal to 80% and Criterion not met if not.

Take a look at these entries with their results.
Cc1ccccc1CN1CCc2c(sc(NC(=O)c3ccccc3Cl)c2C(N)=O)C1    Criterion not met
NC(=O)c1c(NC(=O)c2ccccc2Cl)sc2c1CCN(C(=O)Nc1cc(C(F)(F)F)cc(C(F)(F)F)c1)C2    Criterion met
NC(=O)c1c(NC(=O)c2ccccc2Cl)sc2c1CCN(C(=S)Nc1ccc(C(F)(F)F)cc1)C2    Criterion not met
NC(=O)c1c(NC(=O)c2cccc([N+](=O)[O-])c2)sc2c1CCN(C(=S)Nc1ccccc1Cl)C2    Criterion not met
NC(=O)c1c(NC(=O)c2ccccc2Cl)sc2c1CCN(C(=S)Nc1ccccc1F)C2    Criterion met

Ask: Determine whether measured inhibition meets or exceeds 80% for CSc1ccccc1C(=O)Nc1sc2c(c1C(N)=O)CCN(C(=S)Nc1ccccc1Cl)C2
Result: Criterion not met

Ask: Consider next the molecule NC(=O)c1c(NC(=O)c2ccc(C(F)(F)F)cc2)sc2c1CCN(Cc1c(Cl)cccc1Cl)C2 in the same way.
Result: Criterion not met

Ask: Consider next the molecule Cc1ccccc1NC(=S)N1CCc2c(sc(NC(=O)c3ccccc3Cl)c2C(N)=O)C1 in the same way.
Result: Criterion not met

Ask: Consider next the molecule Cc1ccccc1NC(=S)N1CCc2c(sc(NC(=O)c3ccccc3C(F)(F)F)c2C(N)=O)C1 in the same way.
Result: Criterion not met

Ask: Consider next the molecule NC(=O)c1c(NC(=O)c2ccccc2Cl)sc2c1CCN(C(=S)Nc1cc(C(F)(F)F)cc(C(F)(F)F)c1)C2 in the same way.
Result: Criterion met

Ask: Consider next the molecule COc1ccccc1NC(=S)N1CCc2c(sc(NC(=O)c3ccccc3Cl)c2C(N)=O)C1 in the same way.
Result: Criterion not met

Ask: Consider next the molecule NC(=O)c1c(NC(=O)c2ccccc2F)sc2c1CCN(Cc1cccc(Cl)c1)C2 in the same way.
Result: Criterion not met

Ask: Consider next the molecule NC(=O)c1c(NC(=O)c2ccccc2F)sc2c1CCN(Cc1c(Cl)cccc1Cl)C2 in the same way.
Result: Criterion not met

Ask: Consider next the molecule NC(=O)c1c(NC(=O)c2ccccc2Cl)sc2c1CCN(Cc1ccccc1Cl)C2 in the same way.
Result: Criterion not met

====

Target Entity: Mitogen-activated protein kinase 3 (Homo sapiens) (UniProt P27361)
Experiment Summary: Inhibition of ERK1 (unknown origin) at 1 uM by Z'-Lyte assay relative to control
Given measured inhibition, output TRUE if it is greater than or equal to 60% and FALSE if not.

Cc1ccc(C(=O)Nc2sc3c(c2C(N)=O)CCN(C(=O)Nc2ccccc2Cl)C3)cc1    TRUE

Ask: Determine whether measured inhibition meets or exceeds 60% for NC(=O)c1c(NC(=O)c2cccc([N+](=O)[O-])c2)sc2c1CCN(C(=S)Nc1ccccc1Cl)C2
Result: TRUE

Ask: Consider next the molecule NC(=O)c1c(NC(=O)c2ccc(C(F)(F)F)cc2)sc2c1CCN(Cc1c(Cl)cccc1Cl)C2 in the same way.
Result: FALSE

Ask: Consider next the molecule NC(=O)c1c(NC(=O)c2ccc(C(F)(F)F)cc2)sc2c1CCN(C(=S)Nc1ccc(C(F)(F)F)cc1)C2 in the same way.
Result: TRUE

Ask: Consider next the molecule Cc1ccccc1C(=O)Nc1sc2c(c1C(N)=O)CCN(C(=S)Nc1ccccc1Cl)C2 in the same way.
Result: TRUE

====

Collected inhibition values appear next to each entry.
Target Entity: Mitogen-activated protein kinase 7 (Homo sapiens) (UniProt Q13164)
Sequence (Q13164 2-816 limits assumed): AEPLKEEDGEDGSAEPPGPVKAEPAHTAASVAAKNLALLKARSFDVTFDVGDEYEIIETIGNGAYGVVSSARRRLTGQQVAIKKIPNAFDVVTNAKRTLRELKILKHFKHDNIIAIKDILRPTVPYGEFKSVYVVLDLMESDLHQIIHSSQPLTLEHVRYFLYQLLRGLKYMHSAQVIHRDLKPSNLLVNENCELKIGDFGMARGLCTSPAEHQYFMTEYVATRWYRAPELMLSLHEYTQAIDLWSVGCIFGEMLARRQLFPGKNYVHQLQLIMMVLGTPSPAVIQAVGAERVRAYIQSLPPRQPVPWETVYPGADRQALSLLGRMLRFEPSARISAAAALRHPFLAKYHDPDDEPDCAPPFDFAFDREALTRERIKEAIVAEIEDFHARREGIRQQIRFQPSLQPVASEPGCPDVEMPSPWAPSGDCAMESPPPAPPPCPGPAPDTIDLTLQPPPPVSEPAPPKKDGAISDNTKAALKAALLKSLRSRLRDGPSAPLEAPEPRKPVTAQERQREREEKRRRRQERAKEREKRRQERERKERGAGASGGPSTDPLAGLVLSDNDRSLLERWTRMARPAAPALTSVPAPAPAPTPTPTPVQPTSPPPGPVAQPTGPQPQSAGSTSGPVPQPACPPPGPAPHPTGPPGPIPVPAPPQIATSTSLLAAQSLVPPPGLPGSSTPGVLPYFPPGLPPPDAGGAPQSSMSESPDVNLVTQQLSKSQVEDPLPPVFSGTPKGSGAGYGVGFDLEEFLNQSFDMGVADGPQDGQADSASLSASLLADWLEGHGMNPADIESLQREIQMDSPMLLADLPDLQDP
Experiment Summary: Inhibition of ERK5 (unknown origin) at 1 uM by Z'-Lyte assay relative to control
Hi! Could you send only the number? It should be in %, unit omitted.

NC(=O)c1c(NC(=O)c2ccccc2I)sc2c1CCN(C(=S)Nc1ccccc1Br)C2    85.5
Cc1ccccc1CN1CCc2c(sc(NC(=O)c3ccccc3Cl)c2C(N)=O)C1    55.3
Cc1ccc(C(=O)Nc2sc3c(c2C(N)=O)CCN(Cc2c(Cl)cccc2Cl)C3)cc1    46
NC(=O)c1c(NC(=O)c2ccccc2Cl)sc2c1CCN(C(=O)Nc1c(Cl)cccc1Cl)C2    82.7

Now for the compound whose inhibition we want.
Ask: Lab note: need inhibition with Mitogen-activated protein kinase 7 (Homo sapiens) (UniProt Q13164) for entry COc1ccc(NC(=S)N2CCc3c(sc(NC(=O)c4ccccc4Cl)c3C(N)=O)C2)cc1 , please look it up.
Result: 55.7

====

Target Entity: Mitogen-activated protein kinase 7 (Homo sapiens) (UniProt Q13164)
Experiment Summary: Inhibition of ERK5 (unknown origin) at 1 uM by Z'-Lyte assay relative to control
Measured Quantity: inhibition
A complete answer gives the number followed by the unit.

Observe how each entry below is paired with its result.
NC(=O)c1c(NC(=O)c2ccccc2Cl)sc2c1CCN(C(=S)Nc1ccccc1I)C2    81%
COc1ccccc1NC(=S)N1CCc2c(sc(NC(=O)c3ccccc3I)c2C(N)=O)C1    42.8%
CSc1ccccc1C(=O)Nc1sc2c(c1C(N)=O)CCN(C(=S)Nc1ccccc1Cl)C2    49.1%
CSc1ccccc1NC(=S)N1CCc2c(sc(NC(=O)c3ccccc3Cl)c2C(N)=O)C1    52.6%
NC(=O)c1c(NC(=O)c2ccccc2C(F)(F)F)sc2c1CCN(C(=S)Nc1ccccc1Cl)C2    56.5%

Now for the compound whose inhibition we want.
Ask: Form field: reported inhibition of NC(=O)c1c(NC(=O)c2ccccc2Br)sc2c1CCN(C(=S)Nc1ccccc1Cl)C2
Result: 80.5%
